target: Vasopressin V1b receptor (Homo sapiens) (UniProt P47901); experiment: Agonist activity at vasopressin receptor 1b (unknown origin) expressed in HEK293 cells assessed as stimulation of cAMP production incubated for 30 mins by HTRF assay relative to control; type: functional, cell-based
Sequence (P47901 whole entry): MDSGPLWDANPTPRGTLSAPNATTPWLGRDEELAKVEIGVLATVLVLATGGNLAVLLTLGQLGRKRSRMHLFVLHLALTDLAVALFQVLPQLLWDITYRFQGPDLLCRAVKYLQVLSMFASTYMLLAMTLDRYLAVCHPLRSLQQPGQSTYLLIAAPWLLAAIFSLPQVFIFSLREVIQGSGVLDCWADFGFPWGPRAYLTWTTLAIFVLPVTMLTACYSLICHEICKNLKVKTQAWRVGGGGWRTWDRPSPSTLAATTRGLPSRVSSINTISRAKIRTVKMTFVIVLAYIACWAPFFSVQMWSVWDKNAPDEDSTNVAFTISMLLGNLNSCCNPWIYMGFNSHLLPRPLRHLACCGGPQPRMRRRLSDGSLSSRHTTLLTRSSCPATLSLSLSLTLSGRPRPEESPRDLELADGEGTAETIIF
Parameter measured: %max

Below, each entry is followed by its recorded %max result.
O=C(Nc1ccccc1C(=O)Nc1cccc(C(F)(F)F)c1)c1ccno1 ... < 30%
O=C(Nc1ccccc1C(=O)Nc1cccc(C(F)(F)F)c1)c1ccncc1 ... < 30%
O=C(Nc1ccccc1C(=O)Nc1cccc(C(F)(F)F)c1)c1ccc2c(c1)OCO2 ... < 30%

List the reported %max of each molecule below.
1. O=C(Nc1cccc(C(F)(F)F)c1)c1ccccc1NC(=O)C1CCCCC1
2. O=C(Nc1ccccc1C(=O)Nc1cccc(C(F)(F)F)c1)c1cccs1

["< 30%", "< 30%"]

Dear reader, for each entry below, please note its %max.
1. O=C(Nc1ccccc1C(=O)Nc1cccc(C(F)(F)F)c1)c1cccnc1
2. O=C(Nc1ccc2cc[nH]c2c1)c1ccccc1NC(=O)C1CCCCC1

< 30%
< 30%

What value of %max has been recorded for this entry: `O=C(Nc1cccc(C(F)(F)F)c1)c1ccccc1NC(=O)c1cccc2nc[nH]c12` < 30%

----------
target: Relaxin receptor 1 (Homo sapiens) (UniProt Q9HBX9); experiment: Agonist activity at RXFP1 receptor (unknown origin) expressed in HEK293 cells assessed as stimulation of cAMP production incubated for 30 mins by TR-FRET based HTRF assay relative to forskolin; format: functional, cell-based
The source made the active and inactive calls. No cut-off for these calls is given here.
Parameter measured: %max

Consider the following illustrative entries.
CC(C)c1cccc(NC(=O)c2ccccc2NC(=O)C2CCCCC2)c1 ... 66%
O=C(Nc1cccc(C(F)(F)F)c1)c1ccccc1NC(=O)C1CCC1 ... 75%
O=C(Nc1ccccc1C(=O)Nc1cccc(C(F)(F)F)c1)c1cccs1 ... 88%
O=C(Nc1ccccc1C(=O)Nc1cccc(C(F)(F)F)c1)c1cccnc1 ... 95%
O=C(NCc1cccc(C(F)(F)F)c1)c1ccccc1NC(=O)C1CCCCC1 ... inactive
O=C(Nc1cccc(Br)c1)c1ccccc1NC(=O)C1CCCCC1 ... 91%
CCOc1ccccc1C(=O)Nc1ncccc1C(=O)Nc1cccc(S(=O)(=O)C(F)(F)F)c1 ... 98%
CCOc1ccccc1C(=O)Nc1ccccc1C(=O)Nc1cccnc1 ... 37%
O=C(Nc1cccc(-c2ccc(C(F)(F)F)cc2)c1)c1ccccc1NC(=O)C1CCCCC1 ... inactive
C/C=C\c1cccc(NC(=O)c2ccccc2NC(=O)c2ccccc2OCC)c1 ... 91%

I need %max for every entry listed below, if you could help.
1. CCC(CC)C(=O)Nc1ccccc1C(=O)Nc1cccc(C(F)(F)F)c1
2. Cc1ccccc1C(=O)Nc1ccccc1C(=O)Nc1cccc(C(F)(F)F)c1
3. COCCOc1ccccc1C(=O)Nc1ccccc1C(=O)Nc1cccc(C(F)(F)F)c1
4. COc1ccccc1-c1ccccc1C(=O)Nc1cccc(C(F)(F)F)c1
5. O=C(Nc1ccc(C(F)(F)F)cc1)c1ccccc1NC(=O)C1CCCCC1
6. O=C(Nc1cccc(N2CCCCC2)c1)c1ccccc1NC(=O)C1CCCCC1
7. CC(C)Oc1ccccc1C(=O)Nc1ccccc1C(=O)Nc1cccc(C(F)(F)F)c1

1: 59%; 2: 90%; 3: 98%; 4: inactive; 5: 46%; 6: inactive; 7: 99%

Hi! Can you tell me %max for each of these compounds?
1. CC(C)(C)OC(=O)Nc1ccccc1C(=O)Nc1cccc(C(F)(F)F)c1
2. Cc1ccc(NC(=O)c2ccccc2NC(=O)C2CCCCC2)cc1
3. C#Cc1cccc(NC(=O)c2ccccc2NC(=O)C2CCCCC2)c1
4. O=C(Nc1cccc(C(F)(F)F)c1)c1ccccc1NC(=O)C1CCCC1
5. CCOc1ccccc1C(=O)Nc1ccccc1C(=O)Nc1ccncc1
6. O=C(NCc1ccco1)c1ccccc1NC(=O)c1ccccc1NC(=O)C1CCCCC1
7. COc1ccccc1C(=O)Nc1cccc(C(=O)Nc2cccc(C(F)(F)F)c2)c1

["79%", "32%", "85%", "88%", "64%", "45%", "inactive"]

Working through the 4 compounds below one at a time, give %max for each.
1. COc1ccc(NC(=O)c2ccccc2NC(=O)C2CCCCC2)cc1
2. O=C(Nc1ccc2c(c1)OCO2)c1ccccc1NC(=O)C1CCCCC1
3. CCSc1ccccc1C(=O)Nc1ccccc1C(=O)Nc1cccc(S(=O)(=O)C(F)(F)F)c1
4. COc1ccccc1C(=O)Nc1ccccc1C(=O)Nc1cccc(S(=O)(=O)C(F)(F)F)c1

1: inactive; 2: 58%; 3: 95%; 4: 99%

----------
For each entry below, report its %max value.
biological target: Relaxin receptor 2 (Homo sapiens); assay: Agonist activity at RXFP2 receptor (unknown origin) expressed in HEK293 cells assessed as stimulation of cAMP production incubated for 30 mins by HTRF assay relative to control; type: functional, cell-based
Sequence (Q8WXD0 whole entry): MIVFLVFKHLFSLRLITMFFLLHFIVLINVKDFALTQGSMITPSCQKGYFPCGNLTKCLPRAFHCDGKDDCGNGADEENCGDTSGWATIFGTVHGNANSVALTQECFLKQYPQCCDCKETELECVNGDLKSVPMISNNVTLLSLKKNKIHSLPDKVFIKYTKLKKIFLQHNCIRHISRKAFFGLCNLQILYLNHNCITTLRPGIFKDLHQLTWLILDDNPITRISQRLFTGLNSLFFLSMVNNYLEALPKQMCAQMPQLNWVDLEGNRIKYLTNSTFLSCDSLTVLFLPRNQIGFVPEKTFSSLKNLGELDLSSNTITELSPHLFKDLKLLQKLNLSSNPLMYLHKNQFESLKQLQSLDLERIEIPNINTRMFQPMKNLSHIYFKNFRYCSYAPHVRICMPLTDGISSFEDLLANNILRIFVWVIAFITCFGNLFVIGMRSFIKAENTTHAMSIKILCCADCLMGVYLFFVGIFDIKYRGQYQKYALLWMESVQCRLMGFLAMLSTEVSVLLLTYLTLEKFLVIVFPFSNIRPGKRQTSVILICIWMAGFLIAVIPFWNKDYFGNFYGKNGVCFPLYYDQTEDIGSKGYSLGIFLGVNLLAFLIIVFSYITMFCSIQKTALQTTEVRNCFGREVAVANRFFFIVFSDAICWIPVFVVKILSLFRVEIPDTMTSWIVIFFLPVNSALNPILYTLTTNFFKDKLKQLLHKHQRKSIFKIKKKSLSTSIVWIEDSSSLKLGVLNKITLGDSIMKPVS
Answers are plain numbers, in %.

Recorded %max, per entry:
O=C(Nc1ccccc1C(=O)Nc1cccc(C(F)(F)F)c1)c1ccc2c(c1)OCO2 ... 54
O=C(Nc1ccccc1C(=O)Nc1cccc(C(F)(F)F)c1)c1ccno1 ... 38

Okay, next one:
So what does the record say about %max for `O=C(Nc1ccc2cc[nH]c2c1)c1ccccc1NC(=O)C1CCCCC1` ? 47

----------
Kindly state AC50 for each of the entries shown.
target: Relaxin receptor 1 (Homo sapiens, UniProt Q9HBX9); experiment: Agonist activity at RXFP1 receptor (unknown origin) expressed in HEK293 cells assessed as stimulation of cAMP production incubated for 30 mins by TR-FRET based HTRF assay; format: functional, cell-based; settings: read-out: AC50
One number for each entry, in µM.

Record excerpt, results attached:
CCOc1ccccc1C(=O)Nc1ccccc1C(=O)Nc1ccccn1 ... 29.7
O=C(Nc1cccc(C(F)(F)F)c1)c1ccccc1NC(=O)c1ccccc1OC(F)(F)F ... 1.18
C/C=C/c1cccc(NC(=O)c2ccccc2NC(=O)c2ccccc2OCC)c1 ... 2.11
O=C(Nc1cccc(C(F)(F)F)c1)c1ccccc1NCC1CCCCC1 ... 5.93
CC(=O)Nc1ccccc1C(=O)Nc1cccc(C(F)(F)F)c1 ... 74.7

Give AC50 for each listed item.
1. O=C(NCc1ccco1)c1ccccc1NC(=O)c1ccccc1NC(=O)C1CCCCC1
2. O=C(Nc1ccccc1C(=O)Nc1cccc(C(F)(F)F)c1)c1cccnc1
3. O=C(Nc1ccccc1C(=O)Nc1cccc(C(F)(F)F)c1)c1cccc(Cl)c1
4. CCOc1ccccc1C(=O)Nc1ccccc1C(=O)Nc1cccc(C#N)c1
5. CCOc1ccccc1C(=O)Nc1ncccc1C(=O)Nc1cccc(S(=O)(=O)C(F)(F)F)c1

1. 9.4
2. 5.93
3. 1.88
4. 0.666
5. 1.67

----------
target: Relaxin receptor 1 (Homo sapiens, UniProt Q9HBX9); experiment: Agonist activity at RXFP1 receptor (unknown origin) expressed in HEK293 cells assessed as stimulation of cAMP production incubated for 30 mins by TR-FRET based HTRF assay; type: functional, cell-based; conditions: read-out: AC50
Parameter measured: AC50 (µM)
Give bare numbers, in µM.

Here's what some known entries look like.
O=C(Nc1cccc(C(F)(F)F)c1)c1ccccc1NC(=O)c1cccc2ccccc12 ... 5.93
O=C(Nc1cccc(C(F)(F)F)c1)c1ccccc1NCCc1ccccc1 ... 9.4

Respectfully, I request AC50 for each entry included below.
1. O=C(Nc1ccccc1C(=O)Nc1cccc(C(F)(F)F)c1)c1cc(C(F)(F)F)cc(C(F)(F)F)c1
2. O=C(Nc1ccccc1C(=O)Nc1cccc(C(F)(F)F)c1)c1cccc([N+](=O)[O-])c1

4.2
1.06

----------
Molecular target: Relaxin receptor 1 (Homo sapiens, UniProt Q9HBX9)
Sequence (Q9HBX9 whole entry): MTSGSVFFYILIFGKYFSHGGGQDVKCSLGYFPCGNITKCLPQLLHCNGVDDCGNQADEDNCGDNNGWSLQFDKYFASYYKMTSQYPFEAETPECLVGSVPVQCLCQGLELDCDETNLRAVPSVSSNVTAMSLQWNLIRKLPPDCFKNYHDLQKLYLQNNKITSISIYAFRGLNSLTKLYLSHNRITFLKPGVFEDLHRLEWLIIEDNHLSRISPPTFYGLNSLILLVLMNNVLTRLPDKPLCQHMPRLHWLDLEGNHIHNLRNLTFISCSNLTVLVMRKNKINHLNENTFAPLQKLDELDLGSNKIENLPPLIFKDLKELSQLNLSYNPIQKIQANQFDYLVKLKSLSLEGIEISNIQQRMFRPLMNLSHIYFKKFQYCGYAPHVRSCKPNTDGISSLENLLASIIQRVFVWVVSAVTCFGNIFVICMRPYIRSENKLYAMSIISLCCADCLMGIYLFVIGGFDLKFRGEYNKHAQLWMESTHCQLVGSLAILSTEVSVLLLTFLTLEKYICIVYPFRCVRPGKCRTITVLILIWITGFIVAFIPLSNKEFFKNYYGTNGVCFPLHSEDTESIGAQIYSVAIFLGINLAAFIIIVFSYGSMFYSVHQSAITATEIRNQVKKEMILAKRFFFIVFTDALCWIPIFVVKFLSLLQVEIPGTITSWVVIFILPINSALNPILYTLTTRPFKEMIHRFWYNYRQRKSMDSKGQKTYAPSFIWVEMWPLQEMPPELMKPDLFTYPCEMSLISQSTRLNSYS
Experiment: Agonist activity at RXFP1 receptor (unknown origin) expressed in HEK293 cells assessed as stimulation of cAMP production incubated for 30 mins by TR-FRET based HTRF assay
Type: functional, cell-based
Conditions: read-out: AC50
Parameter measured: AC50
Please give the number followed by its unit.

Illustrative cases are given below, each with its answer.
O=C(Nc1cccc(C(F)(F)F)c1)c1ccccc1NCc1ccccc1 ... 47.1 µM
O=C(Nc1cccc(F)c1)c1ccccc1NC(=O)C1CCCCC1 ... 13.3 µM
CC(C)c1cccc(NC(=O)c2ccccc2NC(=O)C2CCCCC2)c1 ... 5.29 µM

Hey, quick one: what's AC50 for each of these?
1. O=C(Nc1ccccc1C(=O)Nc1cccc(C(F)(F)F)c1)c1ccccc1Cl
2. Cc1ccc(C(=O)Nc2ccccc2C(=O)Nc2cccc(C(F)(F)F)c2)cc1
3. O=C(Nc1cccc(C(F)(F)F)c1)c1ccccc1NC(=O)c1cccc2nc[nH]c12

["3.74 µM", "4.71 µM", "11.8 µM"]

Hey, quick one: what's AC50 for each of these?
1. N#Cc1ccc(C(=O)Nc2ccccc2C(=O)Nc2cccc(C(F)(F)F)c2)cc1
2. O=C(Nc1ccccc1)c1ccccc1NC(=O)C1CCCCC1
3. O=C(Nc1ccccc1C(=O)Nc1cccc(C(F)(F)F)c1)c1ccncc1

1. 1.67 µM
2. 94 µM
3. 7.47 µM

Could I get AC50 for every one of these entries?
1. CC(C)(C)c1cccc(NC(=O)c2ccccc2NC(=O)C2CCCCC2)c1
2. CCOc1ccccc1C(=O)Nc1cccnc1C(=O)Nc1cccc(S(=O)(=O)C(F)(F)F)c1
3. O=C(Nc1cccc(I)c1)c1ccccc1NC(=O)C1CCCCC1

1: 2.65 µM; 2: 4.71 µM; 3: 2.97 µM

Give me AC50 for each of these compounds, listed below.
1. CCCCOc1ccccc1C(=O)Nc1ccccc1C(=O)Nc1cccc(S(=O)(=O)C(F)(F)F)c1
2. CS(=O)(=O)c1cccc(C(=O)Nc2ccccc2C(=O)Nc2cccc(C(F)(F)F)c2)c1
3. CN(C)CCCOc1ccccc1C(=O)Nc1ccccc1C(=O)Nc1cccc(C(F)(F)F)c1

1: 0.047 µM; 2: 9.4 µM; 3: 59.3 µM
